experiment: label from the status in PepcDB records;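 further: failed if final PepcDB status was selected cloned or expressed and not failed if soluble or beyond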
quantityName: protein production

MTMTHLNRLILISLLFVSLLLKSSTASSTVVDEGNRTSRNFRYRTHRFVPRFNHHPYHVTPHRSCDSFIRPYARSMCIELQRIHRSSRKQPLLSPPPPEIDPRYGVDKRLVPSGPNPLHN
failed
MDKILFDIALILIFTKIGSLISIHFKMPGVLGELIAGVILGPFILNLIQANADIKLLSDLGVVFLMFLAGIETNLDELKKAGKSSFLIALGGIIIPLIVGTLSAYMFFSNFYENLFVGVILTATSVSISVQTLTELGKLNTRSGINILGAAIIDDVLGLILITVVLAISGGTKSHGSSIFMTFIYIGIFCLVSLLAIAFLPKPIDKLTQKFKPQKGLAIFSIAAALICAFTAEKLGIAAITGAYICGLVLSPITHKEYIEKRVKIISTSFLSPIFFASVGISASVKGLNFEVLLITLIMFIIAVIGKILGCSASALTLKFKKSEALQIGVGMVSRGEVAIITANIGLQAKIISEEIFLPTLIVVILTTVITPILLKIVFSHKTQKLIDKETLT
failed

###

assay: label from the status in PepcDB records
quantityName: protein production

VRHTVKIDKDTLLQDYGFHISESLPLTVVAVTAGGSAHGKLFPGDQILQMNNEPAEDLSWERAVDILREAEDSLSITVVRCTS
not failed
MTIMAGCMLVLPVMDAIAKYMAVSVGMSPAQVTFYRFFFQVLCTLPLLLVVSPGALFSAKRPWMNCLRGVLHASASLMFFAAVKYMPLADVFAIYFVEPFMLTMMSALFLGDRVGWKRWTAIVVGFGGALIVIQPSFEIFGWTSLLPVACAFFYTLYLFLNRAIGDADSPLVMQTMSGIAGTLFMAAALFAGDALGDKDFAVSLPQSAFALVLLVLLGSLSGYMHLLIVRAFRLAPLSLLAPFQYFEIISATILGYALFSDFPTPSKWLGILIIVASGLFIIWRERQQPASTPPLEGQ
failed
MKIGIVIPAHNEEQHLSACLQSIQQAIQHTGHEQVEILVVLDSCTDQSRSVVESHQVNWIECNFACVGKARDLGIRQLIDQGVIWVACTDADTIVDSDWILCQMLHQPTDAICGVVTLDDLSHLSVQQQQKYLAHYQDSMDHQHIHGANLSFSAEAYIQAGGFEPIPCHEDVSLIEKFIKQCCKVTRSNLVRVTTSSRLNGRAPEGLSYFLKHL
failed
MRQRDDSKRIAFLEATVREVADHGFSATSVGKIAKAAGLSPATLYIYYEDKEQLLLATFYYVSDQVIDAALDSFSRGKDLREGLRRQWHTLFRIGLERPELFRYHETFTHSAWMTPEIQARNESRAANLLNAVDQGKQSGLIKPVPFPLLETFMFRPIYHLVQRCLQGSFEGTDEHIELAFNMAWDAVADRRNT
not failed

###

assay: label from the status in PepcDB records
quantityName: protein production

Answered cases to consult:
MNISPKAIKVRNIWIGGTEPCICAPVVGEDDRKVLREAEEVCRKQPDLLEWRADFFRAIDDQERVLATANGLRNIAGEIPILFTIRSEREGGQPIPLNEAEVRRLIEAICRSGAIDLVDYELAYGERIADVRRMTEECSVWLVVSRHYFDGTPRKETLLADMRQAERYGADIAKVAVMPKSPEDVLVLLQATEEARRELAIPLITMAMGGLGAITRLAGWLFGSAVTFAVGNQSSAPGQIPIDDVRTVLSILQTYSR
not failed
MGCAEEKKTDVRWATFNIRYDNPQDSLNNWQYRKDRVCQFIKDHELDIVGMQEVLHNQFQDLRAGLPEYDGIGVGRDDGKTAGEYAPLFYRKDKYEVLDSNTFWLAENPDSVGMMGWDAVCVRIATWAKFKDKATGKIFMAVNTHFDHVGEEARRQSALLIIRKIKEIVGERPAVVTGDFNVTDASDAYETITTNEFVMKDAYKTAARVTGVDYTFHDFARIPAEDCEKIDFIFVTPQVLVKSCEIPAEVPEALLSDHNPQLADLELEHHHHHH
failed
LSPQVRTAHIGDVPVLVRLMSEFYQEAGFALPHDAAIRAFKALLGKPDLGRIWLIAEGTESVGYIVLTLGFSMEYGGLRGFVDDFFVRPNARGKGLGAAALQTVKQGCCDLGVRALLVETGPEDHPARGVYSRAGFEESGRMLLGQALAPPIHEA
not failed
MIPTISDVSTVEEWRSVAKDIVQRDGDVNWRATIVDWPGLGYSARPKMDYDTDVMEKFVVDFMNSPESPMSQSGNDDLVIIGGGHAATLALRATQRGLLKPSAIAAVAPTWAGPLPIVFGRDSSMVSRYGMLRGTLRAPGVGWMMYNMLVSNEKSIESQYKSHVYADQTNVTDAIIQSRYELTKQKGSRYVPAAFLTGLLDPVSSREEFLQLFADLEGKLPVMVMSTKGAPKRSKAEMEALRGAKGVSKFVEVEGALLPQEEYPSLVAQELYNFLQETFAKC
failed
MNRIKAVGYENNELKEKAQLLADQLNLQLDQNADTCLFVTPEKLTLKIRNFSLMFADFSAMTWSKRRGEGKRQGLIRACKPTKGIKILDATAGWGKDAAILATFGADVVMLERHPVMAALLADALSRRNEADIQKMCLSLIASDAISFLHSLQEKDYPDIIYIDPMHPERNKSALVKKEMQVLQQLIGTDHDAMELIELSLSHVKSRVVVKWPQKVKPLLPPDASIDGKTVRFDIYMAQFSSN
failed
MTSGTSVINDKVLQYETFISEVLRRDLQKVLEQRDAVYEKIAQYLQLKNTIQSIQESGSKELKTDVDLGCNFYVQAHVPDASRIYVAVGYGFFVEFTHAEALKFIEKKTNQLTEYTEVLTKDAAKIKANIRMVLEGLRELQGLKDLPEDRRREVF
not failed
MQCPIEDRLAIQDLMIAYAHAVDTVSDIDAVLDVFTEDAVFDLSGIGLTPQVGHAGIREFFTNVFANMSHHAHYLTNFAVTGYEGDTASMRAYVIGMGVGKDGRAVTVNGRYFFEVRRTEKGWKATRYTMDFLMPLSGTLDNAK
not failed
ACEQNEDWVVNEPMQSFEENPEYAPLNTIPDWVSEKVTPKEYELWRTMSSRYEINYSFLKKDISEKRKKEIYDCINNICERIEKGQINKYEGFLNIADEDGTTLSDSQYFGRIATRSPEGGAEYKTNGCTLYTHSLGPYIKAAVTYKKSDDDVTITSSSVYTGSPYLGNDPSFSGASSVSYDKDKKLIAASCSGTLSFKDGSRKVEVTVQKTGFMIP
not failed
MAMEIGEDEWKVCCGSSEFAKQMSTSGPLTSQEAIYTARDIWFNQVNVTDWLEAFSAHPQIGNTPSPSINSDFARRSVSEQSTAFATTSASALQELAEWNVLYKKKFGFIFIICASGRTHAEMLHALKERYENRPIVELEIAAMEQMKITELRMAKLFSDKAKVISETDSSSSPVSTKPQDRLRIIGGHLNVAAEAKAPKRSRPPITTHVLDVSRGAPAAGVEVHLEVWSGTTGPSFVHGGGGVWSSVGTSATDRDGRSGPLMDLVDALNPGTYRISFDTAKYSPGCFFPYVSIVFQVTESQKWEHFHVPLLLAPFSFSTYRGS
failed
MGRPRVARLDRERIAEAALELVDRDGDFRMPDLARHLNVQVSSIYHHAKGRAAVVELVRHRVVREIDGSAFERLPWDEAFSEWARSYRAAFSRHPTAIRLLATETVRDPGSLSVYHSAAAGLRGAGFPDDHIMAVITAAENFLLGAALDAAAPEVMIEADSTTTDDALTRALAAAPRGPERAEQAFELGLAALLAGFHHLLQECGAVQR
not failed

The sequence listed as `MMEEVARVVACDNQGWLTVEVELKSTCKSCNSSESCGTSAVAQAFSSKTQQFSIQSERTCEVGELLKLGLPESVILKAAALVYLMPLLGLFLGALSGQFFAGLFQINADLSAIGFAALGAITAWLIGKRKAKQLEVDSQPVILAYLGAGISLEKLPV` has a reported protein production of failed

What the record says about `MEIGLSLGLKSDEGGLKLSLSECGCHVEDITIELEGGASWFYQGMVNAFKDQIGSSVESTIAKKLTEGVSDLDSFLQSLPKEIPVDDNADLNVTFTSDPILRNSSITFEIDGLFTKGETNQVLKSFFKKSVSLVICPGNSKMLGISVDEAVFNSAAALYYNADFVQWVVDKIPEQSLLNTARWRFIIPQLYKKYPNQDMNLNISLSSPPLVKISEQYVGANVNADLVINVLDANQVIPVACISLMIRGSGALRVMGNNLGGSVSLEDFSMSLKWSNIGNLHLHLLQPIVWTVIQTVFVPYANDHLEKGFPLPIMHGFTLQNAEIICSESEITVCSDVAYLDSSQQPQWL` : protein production is failed

# sequence `DNYRTTGIATIEVFLPPRLKKDRKNLLETRLHITGRELRSKIAETFGLQENYIKIVINKKQLQLGKTLEEQGVAHNVKAMVLELKQS` ; its protein production = not failed
